Would you kindly list Avg. IC50, human hemolysis assay (complete human sera) for each of these binders?
Target: human C5 protein (human, UniProt P01031 19-673; P01031 678-1676)
Experiment: cell-based or functional assay
Starred links: 1 amine or outer side, 2 acyl side, 3 side chain; linkers in the order of their positions; H or OH if unused. Positions of bridges follow the written chain, without caps; N, C: chain ends. Non-standard residues stand in square brackets, D forms with d. Primed or numbered codes have the meaning given here. Lys‑C8 = N-ε-caprylic lysine, CCCCCCCC(=O)NCCCC[C@H](N[*:1])C(=O)[*:2]; mXylyl″ = bridging moiety between the two marked residues; mXylyl = bridging moiety between residues (mXylyl(i,j)); Trp(7-aza) = N[C@@H](Cc1c[nH]c2ncccc12)C(=O)O; pXylylene = c1cc(C[*:2])ccc1C[*:1]; dPhg = N[C@@H](C(=O)O)c1ccccc1; Phg = N[C@H](C(=O)O)c1ccccc1; Tle = CC(C)(C)[C@H](N)C(=O)O; NMeS = CN[C@@H](CO)C(=O)O; Nva = CCC[C@H](N)C(=O)O
Express it in µM; write the number only.

// Avg. IC50, human hemolysis assay (complete human sera) lookup, binder = Ac-CVARFCD[Tle]Y[Trp(7-aza)]EYP[dPhg][Nva]-NH2 (linker 1-6 via mXylyl″) [R3151] , result: 0.165

// Avg. IC50, human hemolysis assay (complete human sera) lookup, binder = Ac-[Nva]C[Phg]T[Trp(7-aza)]EY[NMeS]HC[Nva]-NH2 (linker 2-10 via pXylylene) [R3050] , result: 0.0429

// Avg. IC50, human hemolysis assay (complete human sera) lookup, binder = Ac-C[Tle]ERFCD[Tle]YWEF-NH2 (linker 1-6 via mXylyl″) [R3139] , result: 0.0972

// Avg. IC50, human hemolysis assay (complete human sera) lookup, binder = Ac-CVERFCD[Tle]YWEF-NH2 (linker 1-6 via mXylyl″) [R3138] , result: 0.0872

// Avg. IC50, human hemolysis assay (complete human sera) lookup, binder = Ac-CVERACD[Tle]Y[Trp(7-aza)]EYP[Phg][Nva]-NH2 (linker 1-6 via mXylyl″) [R3155] , result: 1.53

// Avg. IC50, human hemolysis assay (complete human sera) lookup, binder = Ac-[Nva]C[Phg]T[Trp(7-aza)]EY[NMeS]HC[Nva]-NH2 (linker 2-10 via mXylyl) [R3012] , result: 0.148

// Avg. IC50, human hemolysis assay (complete human sera) lookup, binder = Ac-CAERFCD[Tle]Y[Trp(7-aza)]EYP[Phg][Lys‑C8]-NH2 (linker 1-6 via mXylyl″) [R3166] , result: 0.0175
